- RUN_DESCRIPTION: CCTE_Mundy_HCI_iCellGABA_NOG_NeuriteCount: CCTE's Neurite Outgrowth Assay in iCellGABA cells for Neurite Count, Mundy Lab
Records with an inconclusive call do not appear. Activity calls are given as the source filed them. How the source made its calls: active means hit-call score of the fitted dose curve at least 0.9, where 1 is the maximum; inconclusive means response in the unintended direction; inactive means score below 0.9.
Give your call using only these classes: label 1 for active, label 0 for inactive

These solved cases illustrate the format of a correct answer.
>>> assigned_category("CNC(=O)CSP(=O)(OC)OC")
"label 0"
>>> assigned_category("COP(=O)(OC)O/C(C)=C/C(=O)N(C)C")
"label 0"
>>> assigned_category("CCOP(=O)(OCC)Oc1nc(Cl)c(Cl)cc1Cl")
"label 0"
>>> assigned_category("CCOP(=S)(Oc1cnc(C(C)(C)C)nc1)OC(C)C (stereo not drawn)")
"label 0"

Challenge: Assay outcome for "COP(=S)(OC)SCN1C(=O)c2ccccc2C1=O" : what was it?
Response given: label 1

Challenge: What is the recorded call for this compound in the test? CCOP(=S)(OCC)OC(Cl)C(Cl)(Cl)Cl (stereo not drawn)
Response given: label 1

Challenge: GET /call?item= "CCN(CC)c1nc(C)cc(OP(=S)(OC)OC)n1" returns the recorded outcome of this test.
Response given: label 1

Challenge: What outcome does the record of this test show for COP(=O)(OC)C(O)C(Cl)(Cl)Cl (stereo not drawn) ?
Response given: label 0

Challenge: What call does the record list for "CCCCSP(=O)(SCCCC)SCCCC" ?
Response given: label 1

Challenge: Short answer needed: outcome of this test for COP(N)(=O)SC (stereo not drawn) ?
Response given: label 0

Challenge: Recorded test outcome, item COP(=O)(NC(C)=O)SC (stereo not drawn)
Response given: label 0

Challenge: Hey, what did the test say about "CCOP(=S)(OCC)Oc1cc(C)nc(C(C)C)n1" ?
Response given: label 1

Challenge: Given "COP(=O)(OC)O/C(=C\Cl)c1cc(Cl)c(Cl)cc1Cl" , state the outcome it received in this test.
Response given: label 1

Source of measurements: PubChem BioAssay AID2284362
